Numbers sourced from ChEMBL document CHEMBL4152256.

- Method Summary: Genotoxicity in Salmonella typhimurium TA1535 harboring pSK1002 assessed as survival at 0.25 mg/ml in absence of Sprague-Dawley rat liver S9 fraction after by SOS/umu assay relative to control
- Type: toxicity, organism-based
- Protocol Conditions: salmonella enterica subsp. enterica serovar typhimurium, read-out: Survival
Would you kindly list viability at 0.25 mg/ml for each of these molecules?
One number for each entry, in %.

Which viability at 0.25 mg/ml is reported for this molecule? N#Cc1ccc(C(O)CCN2CC=C(c3ccc(F)cc3)CC2)cc1 (stereo not given)
75.8

Hi! Can you tell me viability at 0.25 mg/ml for each of these molecules?
1. COc1ccccc1N1CCN(CCC(O)c2ccc(F)cc2)CC1 (stereo in doubt; 66)
2. OC(CCN1CC=C(c2ccc(F)cc2)CC1)c1ccc2c(c1)OCO2 (stereo not given)

[98.8, 128]

// batch mode: one viability at 0.25 mg/ml value per listed entry
1. OC(CCN1CCN(c2ccccc2C(F)(F)F)CC1)c1ccc(F)c2ccccc12 (stereo in doubt; 55)
2. OC(CCN1CCN(c2ccc(F)cc2)CC1)c1ccc(F)c2ccccc12 (stereo not given)
3. COc1ccccc1C1=CCN(CCC(O)c2ccc(F)c3ccccc23)CC1 (stereo not given)
4. COc1ccccc1N1CCN(CCC(O)c2ccc(F)c3ccccc23)CC1 (stereo not given)
5. OC(CCN1CCN(c2ccccc2C(F)(F)F)CC1)c1ccc(F)cc1 (stereo not given)
6. COc1ccccc1C1=CCN(CCC(O)c2ccc(F)cc2)CC1 (stereo not given)
7. Nc1ccc(N2CCC(NCCC(O)c3ccc(F)c4ccccc34)CC2)c(C(F)(F)F)c1 (stereo not given)

[207, 51.2, 233, 147, 70.1, 92.3, 48]
